This section presents compounds with their documented NF-kB reporter values.
System: RAW-Dual (murine macrophage reporter line)
Test: NF-kB reporter (SEAP) activity fold change vs agonist alone; higher = enhanced NF-kB activity
Settings: modulator concentration 10 µM; agonist: MPLA […]
Quantity kind: NF-kB reporter

| Compound | Target under test | Recorded number |
| --- | --- | --- |
| Cc1cc(C(=O)N2C3CCC2c2cncnc2C3)c(C)o1 (stereo not drawn) | RAW-Dual (murine macrophage reporter line) | 1 |
| Cc1ccccc1C(=O)Nc1cc(Cl)c([N+](=O)[O-])cc1Cl | RAW-Dual (murine macrophage reporter line) | 0.973 |
| Cc1cccc2sc(NC(=O)c3cccn(Cc4ccc(Br)cc4)c3=O)nc12 | RAW-Dual (murine macrophage reporter line) | 1.02 |
| COc1cc(CNCCc2ccc(OC)c(OC)c2)cc(OC)c1 | RAW-Dual (murine macrophage reporter line) | 0.989 |
| CN1C(=O)NC(=O)C(=Cc2ccc([N+](=O)[O-])o2)C1=O | RAW-Dual (murine macrophage reporter line) | 1 |
| Br.CN1C2CC(OC(=O)C(CO)c3ccccc3)CC1C1OC12 (stereo not drawn) | RAW-Dual (murine macrophage reporter line) | 1.01 |
| Clc1cccc(CNCCc2c[nH]c3ccccc23)c1 | RAW-Dual (murine macrophage reporter line) | 0.992 |
| COc1ccc(C(CN(C)C)C2(O)CCCCC2)cc1.Cl (stereo not drawn) | RAW-Dual (murine macrophage reporter line) | 0.971 |

###

System: RAW-Dual (murine macrophage reporter line)
Assay: NF-kB reporter (SEAP) activity fold change vs agonist alone; higher = enhanced NF-kB activity
Settings: modulator concentration 10 µM; agonist: CpG ODN 1826 0.5 ug/mL
Quantity kind: NF-kB reporter

| Structure as smiles | Result |
| --- | --- |
| O=C(O)COc1cc(Cl)c(Cl)cc1Cl | 0.993 |
| Nc1ccncc1 | 1 |
| O=[N+]([O-])c1ccc(NCCc2ccccc2)c2ncccc12 | 0.971 |
| O=C(NCCN1CCN(c2ccccc2)CC1)c1ccc(F)cc1 | 1 |

###

Test system: RAW-Dual (murine macrophage reporter line)
Experiment: IRF reporter (Lucia luciferase) activity fold change vs agonist alone; higher = enhanced IRF activity
Details: modulator concentration 10 µM; agonist: 3'3'-cGAMP 10 ug/mL
Is IRF reporter at least 0.9? Then Fulfilled. If not, Not fulfilled.

| Molecule | Category label |
| --- | --- |
| O=C1NC(=O)N(c2ccccc2F)C(=O)C1=Cc1cc(Cl)ccc1OCc1ccc([N+](=O)[O-])cc1 | Not fulfilled |
| CC(O)(CS(=O)(=O)c1ccc(F)cc1)C(=O)Nc1ccc(C#N)c(C(F)(F)F)c1 (stereo not given) | Fulfilled |
| CN1C(=O)COc2c(C(=O)NC3CN4CCC3CC4)cc(Cl)cc21.Cl (stereo not given) | Fulfilled |
| O=c1cc(CCl)occ1O | Fulfilled |
| C=C(C)C1Cc2c(ccc3c2OC2COc4cc(OC)c(OC)cc4C2C3=O)O1 (stereo not given) | Not fulfilled |
| COc1ccc2c(c1)[nH]c1c(C)nccc12 | Not fulfilled |
| COc1cc2c(c(OC)c1OC)-c1ccc(O)c(=O)cc1C(NC(C)=O)CC2 (stereo not given) | Not fulfilled |
| CC(C)=CCOc1c2occc2cc2ccc(=O)oc12 | Fulfilled |
| COc1cc(C2c3cc4c(c(O)c3CC3COC(=O)C32)OCO4)cc(OC)c1OC (stereo not given) | Not fulfilled |
| CC(=O)OC1CCC2(C)C(=CCC3C4CCC(=O)C4(C)CCC32)C1 (stereo not given) | Fulfilled |
| Cc1cc(C(C#N)c2ccc(Cl)cc2)c(Cl)cc1NC(=O)c1cc(I)cc(I)c1O (stereo not given) | Not fulfilled |
| O=C1NC(=S)NC(=O)C1=Cc1ccc(OCc2ccc(F)cc2)c(Cl)c1 | Not fulfilled |
| CN1C2CCC1CC(OC(=O)[C@H](CO)c1ccccc1)C2 (stereo not given in full) | Fulfilled |

###

System: RAW-Dual (murine macrophage reporter line)
Experiment: IRF reporter (Lucia luciferase) activity fold change vs agonist alone; higher = enhanced IRF activity
Conditions: modulator concentration 10 µM; agonist: MPLA […]
Quantity kind: IRF reporter

| Compound | Quantity kind | Recorded number |
| --- | --- | --- |
| COc1ccc(CCNCc2ccc3ccccc3c2)cc1 | IRF reporter | 2.58 |
| CN1Cc2c(ccc3c2OCO3)C2C(O)Cc3cc4c(cc3C21)OCO4 (configuration not stated) | IRF reporter | 2 |
| Cc1cc(C(=O)N2C3CCC2c2cncnc2C3)c(C)o1 (configuration not stated) | IRF reporter | 0.832 |
| CC(C)N(CCC(C(N)=O)(c1ccccc1)c1ccccn1)C(C)C (configuration not stated) | IRF reporter | 1.12 |
| Cc1c(NC=C2C(=O)NC(=O)NC2=O)c(=O)n(-c2ccccc2)n1C | IRF reporter | 1.08 |
| O=C1NC(=O)C(=CNc2cccc(O)c2)C(=O)N1 | IRF reporter | 1.6 |
| NC(=O)Cn1c(Cc2ccccc2Cl)nc2ccccc21 | IRF reporter | 0.99 |
| Br.CN1C2CC(OC(=O)C(CO)c3ccccc3)CC1C1OC12 (configuration not stated) | IRF reporter | 1.19 |
| COc1ccc(OC)c(C=C2C(=O)NC(=O)NC2=O)c1 | IRF reporter | 1.01 |
| O=[N+]([O-])Nc1ccc(Br)cn1 | IRF reporter | 1.17 |
| CCOC(=O)c1ccccc1-c1ccc(C=C2C(=O)NC(=O)N(c3ccccc3C)C2=O)o1 | IRF reporter | 0.321 |
| CC(C)NC(C)C(O)c1ccc2c(c1)CCCC2.Cl (configuration not stated) | IRF reporter | 0.891 |

###

This section presents molecules with their documented NF-kB reporter values.
System: RAW-Dual (murine macrophage reporter line)
Assay: NF-kB reporter (SEAP) activity fold change vs agonist alone; higher = enhanced NF-kB activity
Details: modulator concentration 10 µM; agonist: LPS 0.1 ug/mL

| Molecule | Target under test | NF-kB reporter |
| --- | --- | --- |
| CCn1cc(C(=O)O)c(=O)c2c(N)c(F)c(N3CCNCC3)c(F)c21 | RAW-Dual (murine macrophage reporter line) | 1.09 |
| CC(C)c1c(CN(C)C(C)Cc2ccccc2)n(C)n(-c2ccccc2)c1=O (stereo not given) [Prestw-703] | RAW-Dual (murine macrophage reporter line) | 1 |
| CC(=O)CC(c1ccccc1)c1c(OC(C)=O)c2ccccc2oc1=O (stereo not given) | RAW-Dual (murine macrophage reporter line) | 0.925 |
| Cc1cc(C(C#N)c2ccc(Cl)cc2)c(Cl)cc1NC(=O)c1cc(I)cc(I)c1O (stereo not given) | RAW-Dual (murine macrophage reporter line) | 0.999 |
| NNC(=O)c1ccccc1 | RAW-Dual (murine macrophage reporter line) | 1.05 |

###

System: RAW-Dual (murine macrophage reporter line)
Assay: viability score (confluency relative to resting cells, overnight) (fraction); higher = more viable, active = viable (0.7 or more)
Conditions: modulator concentration 10 µM

| Compound | Target under test | viability score |
| --- | --- | --- |
| COc1ccc(CN2CCNCC2)c(OC)c1OC.Cl.Cl | RAW-Dual (murine macrophage reporter line) | 0.989 |
| C1=C(c2c[nH]c3ccccc23)CCNC1 | RAW-Dual (murine macrophage reporter line) | 0.989 |
| Cc1c(NC=C2C(=O)NC(=O)NC2=O)c(=O)n(-c2ccccc2)n1C | RAW-Dual (murine macrophage reporter line) | 1.02 |
| CN1C(=O)NC(=O)C(=Cc2ccc([N+](=O)[O-])s2)C1=O | RAW-Dual (murine macrophage reporter line) | 1 |
| CC(=O)OC1CCC2(C)C(=CCC3C4CCC(=O)C4(C)CCC32)C1 (configuration not stated) | RAW-Dual (murine macrophage reporter line) | 1 |
| CCOc1cc(C=C2C(=O)NC(=O)NC2=O)ccc1OCc1c(Cl)cccc1Cl | RAW-Dual (murine macrophage reporter line) | 1.01 |
| CN1C(=O)NC(=O)C(=Cc2ccc([N+](=O)[O-])o2)C1=O | RAW-Dual (murine macrophage reporter line) | 1.02 |

###

This section presents molecules with their documented IRF reporter values.
System: RAW-Dual (murine macrophage reporter line)
Test: IRF reporter (Lucia luciferase) activity fold change vs agonist alone; higher = enhanced IRF activity
Details: modulator concentration 10 µM; agonist: 3'3'-cGAMP 10 ug/mL
Quantity kind: IRF reporter

| Molecule | Recorded number |
| --- | --- |
| Cc1cc(OC(=O)C2CCCCC2)c2c3c(c(=O)oc2c1)CCC3 | 0.948 |
| CN1C(=O)C(=Cc2nc3ccccc3c(=O)n2-c2ccccc2)c2ccccc21 | 1.08 |
| CN1CC(CNC(=O)OCc2ccccc2)CC2c3cccc4c3c(cn4C)CC21 (stereo unspecified) | 0.986 |
| COc1ccc(CNCCc2c[nH]c3ccccc23)cc1C | 0.782 |
| COc1cc2c(c(OC)c1OC)-c1ccc(OC)c(=O)cc1[C@@H](NC(C)=O)CC2 | 0.0843 |
| Nc1nc(N)nc(NC2CC2)n1 | 0.614 |
| CCN(CC)CCOC(=O)C(O)(c1ccccc1)c1ccccc1.Cl | 1.38 |
| CCC1(O)C(=O)OCc2c1cc1n(c2=O)Cc2cc3ccccc3nc2-1 (stereo unspecified) | 1.04 |
| NNC(=O)c1ccccc1 | 0.929 |
| Cc1cccc(COc2ccc(C=C3C(=O)NC(=S)NC3=O)cc2)c1 | 0.844 |
| COc1ccc(N2C(=O)C(=Cc3ccc(OCc4ccc(F)cc4)c(OC)c3)C(=O)NC2=S)cc1 | 0.919 |
| c1cc2c(cc1C1OCC3C(c4ccc5c(c4)OCO5)OCC13)OCO2 (stereo unspecified) | 0.841 |
| CCOC(=O)c1ccccc1-c1ccc(C=C2C(=O)NC(=O)N(c3ccccc3C)C2=O)o1 | 0.655 |
| CCC1CN2CCC1CC2C(O)c1ccnc2ccc(OC)cc12 (stereo unspecified) | 0.565 |
| Br.CN1C2CC(OC(=O)C(CO)c3ccccc3)CC1C1OC12 (stereo unspecified) | 1 |
| CCOC(=O)Nc1ccc(NCc2ccc(F)cc2)cc1N | 0.893 |
| O=C(O)CCCc1ccc(N(CCCl)CCCl)cc1 | 0.912 |
| O=C1NC(=O)C(=Cc2cccn2-c2ccc(Br)cc2)C(=O)N1 | 0.876 |
| C1CCc2nnnn2CC1 | 0.941 |
| COC(=O)c1ccc(N2C(=O)NC(=O)C(=Cc3ccc(OCc4ccccc4F)cc3)C2=O)cc1 | 0.942 |
| CC(=O)CC(c1ccccc1)c1c(OC(C)=O)c2ccccc2oc1=O (stereo unspecified) | 0.908 |
| COc1ccc(OC)c(C=C2C(=O)NC(=O)NC2=O)c1 | 0.99 |
| CN(C)CCC(=O)c1ccccc1 | 0.155 |
| COc1ccc(CCNCc2cccc3ccccc23)cc1OC | 0.872 |
| NC(=O)Cn1c(Cc2ccccc2Cl)nc2ccccc21 | 0.996 |
| Fc1ccc(CNCCc2c[nH]c3ccccc23)cc1 | 0.751 |
| N=C(N)NOCCC(N)C(=O)O (stereo unspecified) | 0.979 |
| COC12CC(COC(=O)c3cncc(Br)c3)CN(C)C1Cc1cn(C)c3cccc2c13 (stereo unspecified) | 0.905 |
| O=[N+]([O-])c1ccc(NCCc2ccccc2)c2ncccc12 | 0.926 |
| CC(NC(C)(C)C)C(=O)c1cccc(Cl)c1.Cl (stereo unspecified) | 0.986 |
| Cc1c(NC=C2C(=O)NC(=O)NC2=O)c(=O)n(-c2ccccc2)n1C | 1.01 |
| CC(C)c1ccc2c(c1O)CCC1C3=C(CCC21C)C(=O)OC3 (stereo unspecified) | 0.939 |
| Cl.Clc1ccc(C(OCCN2CCCCC2)c2ccccc2)cc1 (stereo unspecified) | 0.543 |
| COc1cc(OC)c(OC)cc1C=O | 0.794 |
| C=C1C[C@@H]2[C@H](CC[C@]3(C)C(=O)CC[C@@H]23)[C@@]2(C)C=CC(=O)C=C12 | 0.789 |
| CC(=O)Oc1ccc(C=Cc2cc(OC(C)=O)cc(OC(C)=O)c2)cc1 | 0.87 |

From: the supplement of paper PMC10646978
